Values were extracted from ChEMBL document CHEMBL4819089.

Molecular target: Aldehyde dehydrogenase, mitochondrial (Homo sapiens, UniProt P05091)
Sequence (P05091 whole entry): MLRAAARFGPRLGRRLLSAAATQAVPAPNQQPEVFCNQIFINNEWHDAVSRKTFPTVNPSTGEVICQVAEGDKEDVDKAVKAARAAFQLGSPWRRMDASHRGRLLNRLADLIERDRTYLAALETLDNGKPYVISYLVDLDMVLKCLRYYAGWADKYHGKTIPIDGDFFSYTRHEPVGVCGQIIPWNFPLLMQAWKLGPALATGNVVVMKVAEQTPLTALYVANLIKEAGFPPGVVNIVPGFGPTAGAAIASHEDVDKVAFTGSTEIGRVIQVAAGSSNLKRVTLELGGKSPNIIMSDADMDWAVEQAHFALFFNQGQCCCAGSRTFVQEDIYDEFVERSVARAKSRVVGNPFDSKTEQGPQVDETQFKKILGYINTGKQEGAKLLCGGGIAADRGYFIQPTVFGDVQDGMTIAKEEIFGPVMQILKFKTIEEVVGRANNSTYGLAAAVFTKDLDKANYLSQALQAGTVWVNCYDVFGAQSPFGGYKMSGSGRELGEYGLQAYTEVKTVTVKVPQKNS
Assay: Agonist activity at human recombinant ALDH2 measured after 1 hr
Measured metric: pEC50
pEC50 is a log-scale quantity: -log10 of the concentration expressed in molar.

query: Can you look up pEC50 on Aldehyde dehydrogenase, mitochondrial (Homo sapiens, UniProt P05091) for C=CCc1ccc(O)c(-c2cc(CC=C)ccc2O)c1 ?
result: 4.24
